Entries and their melting point values follow.

Example compounds with recorded melting point:
>>> assay_result("NC(=O)c1ccc(NC2CCCN(Cc3ccccc3)CC2)c(Cl)c1 (centres undefined)")
"174 to 175 °C"
>>> assay_result("CNC(=S)C1(c2cccnc2)CCCCC1=CCOc1ccc([N+](=O)[O-])cc1 (centres undefined)")
"201 to 202 °C"
>>> assay_result("CCc1ccc(-c2[nH]nc3c2C(=O)c2c(NC(C)=O)cccc2-3)cc1")
"294 °C"
>>> assay_result("O=[N+]([O-])c1ccc(S(=O)(=O)Nc2ccc(F)cc2)c([N+](=O)[O-])c1")
"127 to 128 °C"
>>> assay_result("O=C(NCCNC(=O)C1CCN(c2c(Cl)cncc2Cl)CC1)c1ccccc1")
"209 to 211 °C"

// field: melting point; key: "FC(F)(F)c1cc(I)c2c(c1)ncn2-c1ccccc1" ; value = 118 to 120 °C

// field: melting point; key: "Cc1ccc2c(c1)C(=O)N(CCN1CCC(c3noc4cc(F)ccc34)CC1)C2=O" ; value = 138 to 140 °C

// field: melting point; key: Cc1nc(OC(F)F)nc(C)c1N1CCCn2c1nc1c(Cl)ccc(C(OC(F)F)C(F)(F)F)c12 (centres undefined) ; value = 165 to 166 °C

// field: melting point; key: "CCOC(=O)c1[nH]nnc1Nc1ccc(C)cc1" ; value = 129 to 130 °C

// field: melting point; key: "CCCCc1oc2ccccc2c1-c1ncc(-c2ccc3c(Br)c(OCc4nnn[nH]4)ccc3c2)o1" ; value = 235 to 237 °C

// field: melting point; key: "Cn1c(CC(=O)O)ccc1C(=O)c1ccc(F)cc1" ; value = 164 to 165 °C

// field: melting point; key: "C=CCn1nc(OCC(=O)c2cccs2)c(-c2ccc(F)cc2)c1-c1ccc(S(C)(=O)=O)cc1" ; value = 146 to 148 °C

// field: melting point; key: "COc1cc(OC)nc(Sc2cccc(Cl)c2C(=O)O)n1" ; value = 148 to 151 °C

Attribution: a melting point compilation (Tetko et al.; mined from patent text by program, amines drawn as free bases though some values may be those of a salt)
